Test system: Strongyloides ratti
procedureDetails: Activity against Strongyloides ratti in rats
Type: in vivo
conditionNotes: po, young male Wistar rats, orally, treated on day 7 after infection, autopsied day 13, 50% reduction of number of worms vs untreated controls
measuredMetric: log10 of ED50 (log10 of the value in mg/kg)

>>> obsvalue("COC(=O)Nc1nc2ccc(C3(c4ccccc4)OCC(C)(C)CO3)cc2[nH]1")
0.40
>>> obsvalue("COC(=O)Nc1nc2ccc(C3(c4cccs4)OCC(C)(C)CO3)cc2[nH]1")
1.00
>>> obsvalue("COC(=O)Nc1nc2ccc(C3(c4ccccc4)OCCO3)cc2[nH]1")
-0.20
>>> obsvalue("COC(=O)Nc1nc2ccc(C3(c4cccs4)OCCO3)cc2[nH]1")
0.40
>>> obsvalue("COC(=O)Nc1nc2ccc(C3(c4ccccc4)OCCC(C)O3)cc2[nH]1 (centres unmarked)")
0.10
>>> obsvalue("COC(=O)Nc1nc2ccc(C3(c4ccccc4)OCC(C)O3)cc2[nH]1 (centres unmarked)")
-0.51
>>> obsvalue("COC(=O)Nc1nc2ccc(C3(c4ccc(F)cc4)OCCO3)cc2[nH]1")
-0.51
>>> obsvalue("COC(=O)Nc1nc2ccc(C3(c4cccs4)OCCC(C)O3)cc2[nH]1 (centres unmarked)")
1.00
>>> obsvalue("COC(=O)Nc1nc2ccc(C3(c4cccs4)OC(C)C(C)O3)cc2[nH]1 (centres unmarked)")
1.00
>>> obsvalue("COC(=O)Nc1nc2ccc(C3(c4ccccc4)OC(C)C(C)O3)cc2[nH]1 (centres unmarked)")
0.10
>>> obsvalue("COC(=O)Nc1nc2ccc(C3(c4cccs4)OCC(C)O3)cc2[nH]1 (centres unmarked)")
1.00

Data origin, for the record: patent US4032536A
